# Read-out: Human Leukocyte Antigen - DR isotype (HLADR), HLA-DRA (gene 3122)
# procedure-details: BSK_3C_HLADR: BioMAP Diversity Plus: 3C Assay for Human Leukocyte Antigen - DR isotype (HLADR) Biomarker Activity (AID 2283019)
# study-conditions: primary human endothelial cells (HUVEC); actives raise or lower the signal
Calls of active or inactive are those of the source. The calls were made as follows: active = hit-call score of the fitted dose curve at least 0.9, where 1 is the maximum; inactive = score below 0.9.
Pick from active, inactive when you respond.

Known results for molecules:
# molecule, assigned-class
measured = [
    ("Clc1ccc(C(c2ccccc2Cl)C(Cl)(Cl)Cl)cc1 (stereo not given)", "active"),
    ("C1CC2OC2CC1C1CO1 (stereo not given)", "inactive"),
    ("CCCN(CCC)N=O", "inactive"),
]

For "CCCCCCCCCc1ccc(O)cc1" , what call appears in the results of this test?
active

Moving on to the next molecule: "ClC(Cl)=C(c1ccc(Cl)cc1)c1ccc(Cl)cc1"
active

src = PubChem BioAssay (EPA / NIEHS)
